Cited source for all entries: PubChem BioAssay

- assay-protocol: modulators of AGP1-GFP expression in yeast TOR pathway, primary screen, cell-based, multiplex flow cytometry, S. cerevisiae (AID 1887);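 also: AGP1-GFP fusion strain of S. cerevisiae within a five-strain barcoded multiplex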
- test-settings: 3 h, at 10 µM, stronger effect = higher value
Records with an inconclusive call do not appear.
Give measured GFP response, % of DMSO for each item. Keep answers brief.
Quick note: give the figure in %, leave out the unit.

Problem: State, in one line, measured GFP response, % of DMSO of Cc1cnc(C(=O)N2CCCC(C(=O)c3ccc(Cl)cc3C)C2)cn1 (configuration not stated)
Solution: 101

Problem: State, in one line, measured GFP response, % of DMSO of CCOC(=O)[C@H](CCc1ccccc1)N[C@@H](C)C(=O)N1CCC[C@H]1C(=O)O
Solution: 96.4

Problem: State, in one line, measured GFP response, % of DMSO of COc1cc(C2CC(=O)NC3=C2C(=O)CC(C)(C)C3)ccc1O (configuration not stated)
Solution: 103

Problem: State, in one line, measured GFP response, % of DMSO of COC(=O)c1ccc(COc2ccc3c(C)c(C)c(=O)oc3c2C)o1
Solution: 91.6

Problem: State, in one line, measured GFP response, % of DMSO of Cc1cc(-c2nn(-c3ccccc3F)cc2CN2CCC(O)CC2)c(C)s1
Solution: 95.5

Problem: State, in one line, measured GFP response, % of DMSO of CC(=O)OCC(=O)[C@H]1CC[C@H]2[C@@H]3CC=C4C[C@@H](O)CC[C@]4(C)[C@H]3CC[C@]12C
Solution: 89.4

Problem: State, in one line, measured GFP response, % of DMSO of COc1ccc2[nH]cc(CCNC(=O)C3CCCNC3=O)c2c1 (configuration not stated)
Solution: 105
